- assay.method.text: Single dose PK in healthy subjects (Cohorts 1, 2, S1 and S2), plasma
- Assay type: in vivo, human
- assay.conditions: human, plasma, iv, 240 mg, 240 mg single IV infusion; 10 hr After End of Infusions; read-out: Plasma Concentration of Cmpd A, Maximum
- From the text: […]
experimental.endpoint: concentration at 10 h after end of infusion

>  <structure.as.smiles>
COC(=O)N1CCC[C@H](NS(C)(=O)=O)[C@@H]1CO[C@H]1CC[C@@H](c2ccccc2)CC1

>  <reported>
18.6 ng/mL

$$$$

* * *

- assay.method.text: Single dose PK in healthy subjects (Cohorts 1, 2, S1 and S2), plasma
- Type: in vivo, human
- assay.conditions: human, plasma, intravenous, 7 mg; 1 hr; read-out: Plasma concentration, Maximum
experimental.endpoint: concentration at 1 h (ng/mL)

>  <structure.as.smiles>
COC(=O)N1CCC[C@H](NS(C)(=O)=O)[C@@H]1CO[C@H]1CC[C@@H](c2ccccc2)CC1

>  <experimental.endpoint>
concentration at 1 h

>  <reported>
15.1

$$$$

* * *

- assay.method.text: Single dose PK in healthy subjects (Cohorts 1, 2, S1 and S2), plasma
- Format: in vivo, human
- assay.conditions: human, plasma, intravenous, 180 mg; 1 hr; read-out: Plasma concentration, Q1
- Source text: […]
experimental.endpoint: concentration at 1 hr (ng/mL)

>  <structure.as.smiles>
COC(=O)N1CCC[C@H](NS(C)(=O)=O)[C@@H]1CO[C@H]1CC[C@@H](c2ccccc2)CC1

>  <experimental.endpoint>
concentration at 1 hr

>  <unit.tag>
ng/mL

>  <reported>
201

$$$$

* * *

- assay.method.text: Single dose PK in healthy subjects (Cohorts 1, 2, S1 and S2), plasma
- Assay type: in vivo, human
- assay.conditions: human, plasma, intravenous, 112 mg; 1 hr; read-out: Plasma concentration, Minimum
experimental.endpoint: concentration at 1 h (µg/mL)

>  <structure.as.smiles>
COC(=O)N1CCC[C@H](NS(C)(=O)=O)[C@@H]1CO[C@H]1CC[C@@H](c2ccccc2)CC1

>  <experimental.endpoint>
concentration at 1 h

>  <unit.tag>
µg/mL

>  <reported>
0.126

$$$$

* * *

- assay.method.text: Single dose PK in patients with narcolepsy (Cohorts 5, 6 and 7), plasma
- Type: in vivo, human
- assay.conditions: human, plasma, intravenous, 11.2 mg, Cmpd A 11.2 mg; Mean; Cohort 5, 6, 7

>  <compound>
COC(=O)N1CCC[C@H](NS(C)(=O)=O)[C@@H]1CO[C@H]1CC[C@@H](c2ccccc2)CC1 [Compound A]

>  <unit.tag>
µg·h/mL

>  <AUC(0-t)>
0.199

$$$$

* * *

- assay.method.text: Single dose PK in patients with narcolepsy (Cohorts 5, 6 and 7), plasma
- Assay type: in vivo, human
- assay.conditions: human, plasma, intravenous, 11.2 mg, Cmpd A 11.2 mg; Median; Cohort 5, 6, 7; read-out: AUC24
experimental.endpoint: AUC (ng·h/mL)

>  <structure.as.smiles>
COC(=O)N1CCC[C@H](NS(C)(=O)=O)[C@@H]1CO[C@H]1CC[C@@H](c2ccccc2)CC1

>  <experimental.endpoint>
AUC

>  <unit.tag>
ng·h/mL

>  <reported>
200

$$$$

* * *

- assay.method.text: Single dose PK in healthy subjects (Cohorts 1, 2, S1 and S2), plasma
- Format: in vivo, human
- assay.conditions: human, plasma, intravenous, 134.4 mg; 1.5 hr; read-out: Plasma concentration, Minimum

>  <compound>
COC(=O)N1CCC[C@H](NS(C)(=O)=O)[C@@H]1CO[C@H]1CC[C@@H](c2ccccc2)CC1 [Compound A]

>  <concentration at 1.5 h (ng/mL)>
191

$$$$

Data provenance is patent US20220339143A1.
